Experiment: gradient 5% acetonitrile 3 min, to 50% in 2 min, to 85% in 15 min, held 3 min, 100 µL/min
Conditions: column: Zorbax Extend-C18 2.1 x 50 mm; eluents: water / acetonitrile, 0.1% formic acid
Recorded Metric: RP-LC retention time (s)

Cc1nn(C2CCS(=O)(=O)C2)c(C)c1N1CCN(S(=O)(=O)c2cccs2)CC1 (stereo not drawn) : 752
Cc1ccc(-n2c(N3CCCC(C(=O)NCC4CC4)C3)nc3ccsc3c2=O)cc1 (stereo not drawn) : 805
CCN1C(=O)CCc2cc(NC(=O)Cc3ccccc3Cl)ccc21 : 795

###

Assay: gradient 5% acetonitrile 3 min, to 50% in 2 min, to 85% in 15 min, held 3 min, 100 µL/min
Details: column: Zorbax Extend-C18 2.1 x 50 mm; eluents: water / acetonitrile, 0.1% formic acid
Recorded Metric: RP-LC retention time (s)

O=C(NCCc1csc(-c2cccs2)n1)C1CCN(S(=O)(=O)c2ccccc2F)CC1 : 872
O=S(=O)(c1cccnc1)N1CCCC(c2nnc(C(F)(F)F)o2)C1 (stereo not given) : 747
COCCCNC(=O)c1c(OCC2CC2)cc(=O)n2c1CCCCC2 : 611
O=C(Nc1ccccc1F)C1CCN(C(=O)c2ncn3c2COC(c2ccc(F)cc2)C3)CC1 (stereo not given) : 738
CNC(=O)c1ccc(-c2nc3cc(NS(=O)(=O)c4cc(F)ccc4F)ccc3n2C)cc1 : 637
CCOC(=O)c1sc2cccc(F)c2c1S(=O)(=O)N1CCN(c2ccccn2)CC1 : 767
O=C(NCc1cccs1)C1CCN(S(=O)(=O)c2cc(C(=O)N3CCCCCC3)cs2)CC1 : 861
CCCCN(C)CCNC(=O)C1c2ccccc2C(=O)N2CCc3cc(OC)c(OC)cc3C12 (stereo not given) : 633
CCCn1cnnc1C1CCCCN1S(=O)(=O)c1cccnc1 (stereo not given) : 580
CN(c1ccc(F)cc1)S(=O)(=O)N1CCCC(C(=O)NCCCN2CCc3ccccc3C2)C1 (stereo not given) : 706

###

Assay: gradient 5% acetonitrile 3 min, to 50% in 2 min, to 85% in 15 min, held 3 min, 100 µL/min
Details: column: Zorbax Extend-C18 2.1 x 50 mm; eluents: water / acetonitrile, 0.1% formic acid
Recorded Metric: RP-LC retention time (s)

Cc1ccc(NC(=O)C2(C)Oc3cccnc3NC2=O)cc1C (configuration not stated) : 760

[a] CC(=O)c1ccc(N2CCN(C(=O)C(=O)c3cccn3C)CC2)cc1
[b] O=C(NC1CCCC1)N1CC(Oc2cccc(-c3nc(-c4ccccc4)no3)c2)C1
Query: Compare a and b by numeric RP-LC retention time and name the larger one. When you have decided, please share the label of that item.
Reply: b
(b: 1130 s, a: 735 s)

###

Assay: gradient 5% acetonitrile 3 min, to 50% in 2 min, to 85% in 15 min, held 3 min, 100 µL/min
Details: column: Zorbax Extend-C18 2.1 x 50 mm; eluents: water / acetonitrile, 0.1% formic acid
Recorded Metric: RP-LC retention time (s)

Cc1cccc(N2CCN(c3ccc4nnc(CCc5nc(-c6ccc(F)cc6)no5)n4n3)CC2)c1 : 1130
Cc1ccc(NC(=O)Cn2nc3c(Oc4ccc(C(C)C)cc4)nccn3c2=O)c(C)c1 : 1050
CCOc1nccnc1NC1CCN(C(=O)c2ccc(C)s2)CC1 : 726
CCCNC(=O)CCc1nc2ccccc2n(CC(=O)Nc2cccc(CC)c2)c1=O : 845
Cc1ccc(Cn2c(=O)n(CCNC(=O)c3ccc4c(c3)OCO4)c3ncccc32)cc1 : 824

Each recorded value in this set is attributed to the METLIN SMRT retention time set (Domingo-Almenara et al. 2019).
